Tested on: UO-31
Test summary: NCI tumour cell line growth inhibition, 48 h
Activity calls are given as the source filed them. Cut-off read from the data, not from the text of the source: active = GI50 up to about 1.1 µM and inactive = higher.
Collected GI50 values appear next to each entry.

// worked examples, GI50 included
I would be grateful if you could share the reported GI50 for O=C(Nc1ccccc1SC(/C=C/NNC1=NN=C(c2ccccc2)C(c2ccccc2)N1)c1ccccc1)c1ccc(Cl)cc1Cl (stereo not drawn) .
34 µM (inactive)

Again, but for COc1cc(/C=C\c2cccnc2)cc(OC)c1OC
27.9 µM (inactive)

// next record CCC1(CC)C(=O)N(C(=O)c2ccc(Cl)cc2)N(C(=O)c2ccccc2Cl)C1=O
> 100 µM (inactive)

Thanks! And CC12Nc3c(Cl)cc(Cl)cc3N1C(=O)c1ccccc12 (stereo not drawn) ?
52.7 µM (inactive)

Further, for CC(=O)OC12C=CC(=O)N1c1ccccc1C(=O)O2 (stereo not drawn) ?
> 100 µM (inactive)

---
Could you share which GI50 value was measured for C1CSCCSCCCSCCSCCCSCCSCCCSCCSC1 ?
> 100 µM (inactive)

Same for COc1ccc(/C=c2/s/c(=C(\C#N)c3nc4ccccc4[nH]3)n(-c3ccccc3)c2=O)cc1
> 52.6 µM (inactive)

Same again, this time with CC(C)/C(=N\[N+](C)(C)C)c1ccccc1
> 100 µM (inactive)
